test system: Pyricularia oryzae; assay: Fungicidal activity against Magnaporthe oryzae infected in 24 hr compound pre-treated Oryza sativa cv. Chukyoasahi assessed as disease control measured after 10 days; format: functional
measurement label: I90

Below: 6 molecules and their reported I90.
{"columns": ["molecule", "I90"],
 "data": [
  ["CCCCOc1c(C(F)(F)F)cc([N+](=O)[O-])c(Nc2ncc(C(F)(F)F)cc2Cl)c1[N+](=O)[O-]", ">500 ppm"],
  ["O=[N+]([O-])c1cc(C(F)(F)F)c(Cl)c([N+](=O)[O-])c1Nc1ncc(C(F)(F)F)cc1Cl [FLUAZINAM]", "<16 ppm"],
  ["O=[N+]([O-])c1cc(C(F)(F)F)c(I)c([N+](=O)[O-])c1Nc1ncc(C(F)(F)F)cc1Cl", "16 ppm"],
  ["C[S+]([O-])c1c(C(F)(F)F)cc([N+](=O)[O-])c(Nc2ncc(C(F)(F)F)cc2Cl)c1[N+](=O)[O-] (configuration not stated)", "63 ppm"],
  ["O=[N+]([O-])c1cc(C(F)(F)F)c(Br)c([N+](=O)[O-])c1Nc1ncc(C(F)(F)F)cc1Cl", "16 ppm"],
  ["O=[N+]([O-])c1cc(C(F)(F)F)c(OCC(F)(F)F)c([N+](=O)[O-])c1Nc1ncc(C(F)(F)F)cc1Cl", ">500 ppm"]
]}

Query: I90; subject: Nc1c(C(F)(F)F)cc([N+](=O)[O-])c(Nc2ncc(C(F)(F)F)cc2Cl)c1[N+](=O)[O-]
>500 ppm

* * *

test system: Rhizoctonia solani; assay: Fungicidal activity against Rhizoctonia solani infected in 24 hr compound pre-treated Oryza sativa cv. Chukyoasahi assessed as disease control measured after 10 days; type: functional
measurement label: I90

Worked cases, answers included:
{"columns": ["compound", "I90"],
 "data": [
  ["CSc1c(C(F)(F)F)cc([N+](=O)[O-])c(Nc2ncc(C(F)(F)F)cc2Cl)c1[N+](=O)[O-]", "16 ppm"],
  ["CCOc1c(C(F)(F)F)cc([N+](=O)[O-])c(Nc2ncc(C(F)(F)F)cc2Cl)c1[N+](=O)[O-]", "16 ppm"],
  ["CCCOc1c(C(F)(F)F)cc([N+](=O)[O-])c(Nc2ncc(C(F)(F)F)cc2Cl)c1[N+](=O)[O-]", "16 ppm"],
  ["CCCCOc1c(C(F)(F)F)cc([N+](=O)[O-])c(Nc2ncc(C(F)(F)F)cc2Cl)c1[N+](=O)[O-]", ">500 ppm"]
]}

Give the reported I90 for COc1c(C(F)(F)F)cc([N+](=O)[O-])c(Nc2ncc(C(F)(F)F)cc2Cl)c1[N+](=O)[O-] (system: Rhizoctonia solani).
16 ppm

Form field - read-out: I90; system: Rhizoctonia solani; submitted item: O=[N+]([O-])c1cc(C(F)(F)F)c(OCC(F)(F)F)c([N+](=O)[O-])c1Nc1ncc(C(F)(F)F)cc1Cl
63 ppm

Lab note: need I90 for O=[N+]([O-])c1cc(C(F)(F)F)c(Br)c([N+](=O)[O-])c1Nc1ncc(C(F)(F)F)cc1Cl on Rhizoctonia solani, anyone have it?
63 ppm

* * *

tested on: Pyricularia oryzae; test: Fungicidal activity against Magnaporthe oryzae infected in 24 hr compound pre-treated Oryza sativa cv. Chukyoasahi assessed as disease control measured after 10 days; format: functional
measurement label: I90 (ppm)
# output: bare number, implied unit ppm

{"columns": ["structure smiles", "measurement label", "readout value"],
 "data": [
  ["CCCOc1c(C(F)(F)F)cc([N+](=O)[O-])c(Nc2ncc(C(F)(F)F)cc2Cl)c1[N+](=O)[O-]", "I90", 63]
]}

Name the reported I90 value associated with the compound CCOc1c(C(F)(F)F)cc([N+](=O)[O-])c(Nc2ncc(C(F)(F)F)cc2Cl)c1[N+](=O)[O-]
16

Where these numbers come from: ChEMBL document CHEMBL3045201
